# assayed system: recombinant human MGAT2 (Homo sapiens (Human), UniProt Q3SYC2)
# Sequence (Q3SYC2 whole entry): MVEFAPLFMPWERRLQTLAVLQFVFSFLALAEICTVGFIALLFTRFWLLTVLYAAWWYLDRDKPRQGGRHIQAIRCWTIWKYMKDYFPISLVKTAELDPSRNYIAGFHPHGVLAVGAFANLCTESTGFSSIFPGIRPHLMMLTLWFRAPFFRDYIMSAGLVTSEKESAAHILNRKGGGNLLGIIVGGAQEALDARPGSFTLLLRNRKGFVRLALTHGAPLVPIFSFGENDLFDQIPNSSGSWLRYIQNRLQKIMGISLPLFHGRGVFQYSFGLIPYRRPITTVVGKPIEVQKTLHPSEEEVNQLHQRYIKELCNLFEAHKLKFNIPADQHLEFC
# test name: Measurement of human MGAT2 inhibitory activity
# Assay type: biochemical
# stated conditions: concentration exhibiting 50% enzyme inhibition; recombinant human MGAT2, 2-Oleoylglycerol/Oleoyl-CoA
Lab note: anything with IC50 below 6 nM is marked YES; values at 6 nM or higher are marked NO.

molecule: N#Cc1ccc(-c2nn3c(c2NC(=O)COC(F)(F)F)C(=O)N[C@]2(CCc4cc(OCC(F)(F)F)ccc42)C3)nc1
label: NO

molecule: CS(=O)(=O)CC(=O)Nc1c(-c2ccc(F)cc2)nn2c1C(=O)N[C@@]1(CCc3cc(F)cc(F)c31)C2
label: NO

molecule: CS(=O)(=O)CC(=O)Nc1c(-c2ccc(C#N)c(F)c2)nn2c1C(=O)N[C@]1(CCc3cc(OCC(F)(F)F)ccc31)C2
label: YES

molecule: CS(=O)(=O)CC(=O)Nc1c(-c2ccc(F)c(F)c2)nn2c1C(=O)N[C@]1(CCOc3cc(OCC(F)(F)F)ccc31)C2
label: YES

molecule: CCOc1ccc2c(c1)OCC[C@@]21Cn2nc(-c3ccc(F)c(F)c3)c(NC(=O)CS(C)(=O)=O)c2C(=O)N1
label: YES

molecule: CS(=N)(=O)CC(=O)Nc1c(-c2ccc(C(F)(F)F)cc2)nn2c1C(=O)N[C@@]1(CCc3cc(OCC(F)(F)F)ccc31)C2 (stereo partly shown)
label: YES

molecule: CS(=O)(=O)CC(=O)Nc1c(CCC2CC2)nn2c1C(=O)N[C@@]1(CCc3cc(F)cc(F)c31)C2
label: NO

molecule: C[S@](=N)(=O)CC(=O)Nc1c(-c2ccc(F)c(Cl)c2)nn2c1C(=O)N[C@@]1(CCc3cc(OCC(F)(F)F)ccc31)C2 (single isomer, unassigned)
label: YES

molecule: Cc1ccc(-c2nn3c(c2NC(=O)CS(C)(=O)=O)C(=O)N[C@@]2(CCc4cc(OCCCC(F)(F)F)ccc42)C3)nc1
label: YES

molecule: CS(=O)(=O)CC(=O)Nc1c(-c2ccc(C#N)cc2)nn2c1C(=O)N[C@@]1(CCc3cc(OCC(F)(F)F)ccc31)C2
label: YES

molecule: CS(=O)(=O)CC(=O)Nc1c(-c2ccc(OC(F)F)cc2)nn2c1C(=O)N[C@]1(CCc3cc(OCC(F)(F)F)ccc31)C2
label: YES

molecule: CS(=O)(=O)CC(=O)Nc1c(-c2ccccc2)nn2c1C(=O)N[C@@]1(CCc3cc(OCC(F)(F)F)ccc31)C2
label: NO

molecule: CS(=O)(=O)CC(=O)Nc1c(-c2ccc(S(C)(=O)=O)cc2)nn2c1C(=O)N[C@@]1(CCc3cc(OCC(F)(F)F)ccc31)C2
label: NO

molecule: CCOc1ccc2c(c1)CC[C@@]21Cn2nc(-c3ccc(F)c(F)c3)c(NC(=O)CS(C)(=O)=O)c2C(=O)N1
label: YES

molecule: Cc1ccc(-c2nn3c(c2NC(=O)CS(C)(=O)=O)C(=O)N[C@]2(CCc4cc(OCC(F)(F)F)ccc42)C3)cc1
label: YES

molecule: CS(=O)(=O)CC(=O)Nc1c(-c2ccc(F)c(F)c2)nn2c1C(=O)N[C@]1(CCc3cc(OCC(F)(F)F)ccc31)C2
label: YES

molecule: CS(=O)(=O)CC(=O)Nc1c(CCC(F)(F)F)nn2c1C(=O)N[C@]1(CCc3cc(OCC(F)(F)F)ccc31)C2
label: YES

molecule: CCOc1ccc2c(c1)CC[C@]21Cn2nc(-c3ccc(F)c(F)c3)c(NC(=O)CS(C)(=O)=O)c2C(=O)N1
label: YES

molecule: CS(=O)(=O)CC(=O)Nc1c(-c2ccc(C#N)cc2)nn2c1C(=O)N[C@]1(CCc3cc(OCC(F)(F)F)ccc31)C2
label: YES

molecule: Cc1ccccc1-c1nn2c(c1NC(=O)CS(C)(=O)=O)C(=O)N[C@]1(CCc3cc(OCC(F)(F)F)ccc31)C2
label: NO

molecule: CS(=O)(=O)CC(=O)Nc1c(-c2ccc(C3CC3)cn2)nn2c1C(=O)N[C@]1(CCc3cc(OCC(F)(F)F)ccc31)C2
label: YES

molecule: N#Cc1ccc(-c2nn3c(c2NC(=O)CC(F)(F)F)C(=O)N[C@]2(CCc4cc(OCC(F)(F)F)ccc42)C3)nc1
label: NO

molecule: CS(=O)(=O)CC(=O)Nc1c(-c2ccc(OC3CC3)cc2)nn2c1C(=O)N[C@@]1(CCc3cc(OCC(F)(F)F)ccc31)C2
label: NO

molecule: CS(=O)(=O)CC(=O)Nc1c(-c2ccc(Cl)cn2)nn2c1C(=O)N[C@@]1(CCc3cc(OCC(F)(F)F)ccc31)C2
label: YES

molecule: Cc1ccc(-c2nn3c(c2NC(=O)C2CS(=O)(=O)C2)C(=O)N[C@]2(CCc4cc(OCC(F)(F)F)ccc42)C3)nc1
label: NO

Source listed as patent US12227509B2.
